Where do these numbers come from? They come from the Immune Epitope Database (IEDB).

biological target: HLA-B*45:06; test: IEDB peptide-MHC binding, purified MHC/competitive/fluorescence; filed as Kd, often an IC50 or EC50 that approximates it; bounds were set here for any values at or beyond the usual limits of such assays; conditions: source organism: Mycobacterium tuberculosis
Endpoint Label: Kd

Exam item: Item `ALRQARAAF` with HLA-B*45:06 - Kd?
Marked response: ≥ 5 µM

* * *

target: HLA-A*26:02; test: IEDB peptide-MHC binding, purified MHC/competitive/fluorescence; filed as Kd, often an IC50 or EC50 that approximates it; bounds were set here for any values at or beyond the usual limits of such assays; settings: source organism: Variola virus
Endpoint Label: pKd
Scale: pKd equals -log10([C]), with [C] in mol/L.

Exam item: What is its pKd for HLA-A*26:02? Entry: `IHSDQLSKF`
Marked response: 5.57

* * *

biological target: HLA-A*02:01; assay: IEDB peptide-MHC binding, purified MHC/direct/fluorescence; filed as Kd, often an IC50 or EC50 that approximates it; bounds were set here for any values at or beyond the usual limits of such assays; details: source organism: Influenza A virus (A/Duck/Shantou/2134/00(H9N2))
Endpoint Label: Kd

Exam item: So what does the record say about Kd for `ASRGLWDSF` ?
Marked response: ≥ 20 µM

* * *

target: HLA-B*39:01; assay: IEDB peptide-MHC binding, purified MHC/competitive/fluorescence; filed as Kd, often an IC50 or EC50 that approximates it; bounds were set here for any values at or beyond the usual limits of such assays; settings: source organism: Orthohantavirus sinnombreense
Endpoint Label: Kd

Exam item: # lookup: Kd of `LVTARQKLK`
Marked response: ≥ 20 µM

* * *

target: HLA-A*24:03; test: IEDB peptide-MHC binding, purified MHC/direct/fluorescence; filed as Kd, often an IC50 or EC50 that approximates it; bounds were set here for any values at or beyond the usual limits of such assays; conditions: source organism: Choclo virus
pKd: −log10 of the molar value.
Endpoint Label: pKd

Exam item: Could you tell me which pKd is on file for `LPSSSSYSY` ?
Marked response: ≤ 4.70

* * *

biological target: HLA-A*69:01; assay: IEDB peptide-MHC binding, purified MHC/competitive/fluorescence; filed as Kd, often an IC50 or EC50 that approximates it; bounds were set here for any values at or beyond the usual limits of such assays; settings: source organism: Escherichia coli
Endpoint Label: Kd

Exam item: Would you kindly share the measured Kd for `EQRLIDICV` ?
Marked response: ≥ 20 µM

* * *

target: HLA-B*44:03; assay: IEDB peptide-MHC binding, purified MHC/competitive/radioactivity; filed as Kd, often an IC50 or EC50 that approximates it; bounds were set here for any values at or beyond the usual limits of such assays; settings: source organism: Mammarenavirus choriomeningitidis
pKd: −log10 of the molar value.
Endpoint Label: pKd

Exam item: What value of pKd has been reported for the following sequence? `SDAALHNMI`
Marked response: ≤ 4.50

* * *

target: HLA-B*07:02; test: IEDB peptide-MHC binding, purified MHC/competitive/radioactivity; filed as Kd, often an IC50 or EC50 that approximates it; bounds were set here for any values at or beyond the usual limits of such assays; conditions: source organism: Triticum aestivum
Endpoint Label: Kd

Exam item: Consider the sequence `QPYPQSQPQY` and give its measured Kd.
Marked response: ≥ 69.6 µM

* * *

Entries annotated with measured pKd
target: HLA-B*51:01; assay: IEDB peptide-MHC binding, purified MHC/competitive/radioactivity; filed as Kd, often an IC50 or EC50 that approximates it; bounds were set here for any values at or beyond the usual limits of such assays; details: source organism: SARS coronavirus Tor2
# reply with the number alone; pKd is -log10 of concentration in mol/L

Observe how each entry below is paired with its result.
[
  {
    "Record Sequence": "VPMEKLKAL",
    "Tested Target": "HLA-B*51:01",
    "pKd": 5.66
  },
  {
    "Record Sequence": "LPFHRWHTMV",
    "Tested Target": "HLA-B*51:01",
    "pKd": 5.94
  }
]

Exam item: Returns the measured pKd for the input sequence. Input: `GPQSNQRSA`
Marked response: 5.09

* * *

biological target: HLA-B*45:01; assay: IEDB peptide-MHC binding, purified MHC/competitive/radioactivity; filed as Kd, often an IC50 or EC50 that approximates it; bounds were set here for any values at or beyond the usual limits of such assays; conditions: source organism: Mammarenavirus lassaense
Endpoint Label: Kd (µM)
Unit µM implied. Number only.

Exam item: State its Kd on HLA-B*45:01: `DEILLDGGAS`
Marked response: 5.95

* * *

molecular target: HLA-A*24:02; test: IEDB peptide-MHC binding, purified MHC/direct/fluorescence; filed as Kd, often an IC50 or EC50 that approximates it; bounds were set here for any values at or beyond the usual limits of such assays; settings: source organism: Escherichia coli O157:H7
Endpoint Label: Kd

Exam item: Query Kd on HLA-A*24:02 for `YLFQWNDNV`
Marked response: ≥ 20 µM

* * *

target: HLA-B*07:02; assay: IEDB peptide-MHC binding, purified MHC/direct/fluorescence; filed as Kd, often an IC50 or EC50 that approximates it; bounds were set here for any values at or beyond the usual limits of such assays; details: source organism: Vibrio vulnificus
Endpoint Label: Kd

Exam item: I would be grateful if you could share the reported Kd for `IQTHCEVGY` .
Marked response: ≥ 20 µM

* * *

biological target: HLA-A*26:01; test: IEDB peptide-MHC binding, purified MHC/competitive/fluorescence; filed as Kd, often an IC50 or EC50 that approximates it; bounds were set here for any values at or beyond the usual limits of such assays; conditions: source organism: Orthohantavirus andesense
Endpoint Label: Kd

[
  {
    "Record Sequence": "VSANVKGNW",
    "Endpoint Label": "Kd",
    "Readout Value": "≥ 20 µM"
  }
]

# next sequence below
Exam item: Which value of Kd has been reported for `NALEKALRW` in the records?
Marked response: ≥ 20 µM

* * *

biological target: HLA-B*15:17; assay: IEDB peptide-MHC binding, purified MHC/competitive/fluorescence; filed as Kd, often an IC50 or EC50 that approximates it; bounds were set here for any values at or beyond the usual limits of such assays; conditions: source organism: Zaire ebolavirus
pKd: −log10 of the molar value.
Endpoint Label: pKd

[
  {
    "Record Sequence": "GIVSSMHYK",
    "Tested Target": "HLA-B*15:17",
    "pKd": "≤ 4.70"
  }
]

Exam item: # input sequence: `DRLASTVIY` ; wanted: its pKd
Marked response: ≤ 4.70

Exam item: Entry to check: `AENCYNLEI`
Marked response: ≤ 4.70

* * *

biological target: HLA-A*31:01; assay: IEDB peptide-MHC binding, purified MHC/competitive/fluorescence; filed as Kd, often an IC50 or EC50 that approximates it; bounds were set here for any values at or beyond the usual limits of such assays; details: source organism: West Nile virus
pKd: −log10 of the molar value.
Endpoint Label: pKd

Exam item: # get_value(readout= pKd, system= HLA-A*31:01) for `RLCYGGPWK`
Marked response: ≤ 4.70

* * *

target: HLA-B*37:01; experiment: IEDB peptide-MHC binding, purified MHC/competitive/fluorescence; bounds were set here for any values at or beyond the usual limits of such assays; settings: source organism: Mus musculus
Endpoint Label: IC50

Exam item: Name the reported IC50 value associated with the sequence `VALFSSCPVAY`
Marked response: ≥ 20 µM

* * *

target: HLA-B*51:01; experiment: IEDB peptide-MHC binding, purified MHC/direct/fluorescence; filed as Kd, often an IC50 or EC50 that approximates it; bounds were set here for any values at or beyond the usual limits of such assays; settings: source organism: Coxiella burnetii Q321
Endpoint Label: pKd
Reminder that pKd is minus the log10 of a molar concentration.

Exam item: Find the recorded pKd belonging to `IAFTRLFTV` and report it.
Marked response: 5.49

* * *

target: HLA-A*68:23; assay: IEDB peptide-MHC binding, purified MHC/competitive/fluorescence; filed as Kd, often an IC50 or EC50 that approximates it; bounds were set here for any values at or beyond the usual limits of such assays; settings: source organism: Homo sapiens
Endpoint Label: pKd
Kindly note that pKd refers to -log10 of the concentration in mol/L and answer with the value alone.

Exam item: Record request: pKd value, item `MPMKGRFPI`
Marked response: 6.57

* * *

target: HLA-A*68:01; assay: IEDB peptide-MHC binding, purified MHC/competitive/radioactivity; filed as Kd, often an IC50 or EC50 that approximates it; bounds were set here for any values at or beyond the usual limits of such assays; conditions: source organism: Mammarenavirus guanaritoense
Endpoint Label: pKd
Units for pKd: none; it is -log10 of a concentration expressed in mol/L.

[
  {
    "Record Sequence": "FTVKLGGVFH",
    "Tested Target": "HLA-A*68:01",
    "Readout Value": 7.56
  }
]

Exam item: # query: pKd of entry `VCEEFFHQK`
Marked response: 5.23
